Hello, the source for this data is patent US7179829B2, in case you need it.

- Measurement Target: rNHE3 (Rattus norvegicus, UniProt P26433)
- Sequence (P26433 29-831): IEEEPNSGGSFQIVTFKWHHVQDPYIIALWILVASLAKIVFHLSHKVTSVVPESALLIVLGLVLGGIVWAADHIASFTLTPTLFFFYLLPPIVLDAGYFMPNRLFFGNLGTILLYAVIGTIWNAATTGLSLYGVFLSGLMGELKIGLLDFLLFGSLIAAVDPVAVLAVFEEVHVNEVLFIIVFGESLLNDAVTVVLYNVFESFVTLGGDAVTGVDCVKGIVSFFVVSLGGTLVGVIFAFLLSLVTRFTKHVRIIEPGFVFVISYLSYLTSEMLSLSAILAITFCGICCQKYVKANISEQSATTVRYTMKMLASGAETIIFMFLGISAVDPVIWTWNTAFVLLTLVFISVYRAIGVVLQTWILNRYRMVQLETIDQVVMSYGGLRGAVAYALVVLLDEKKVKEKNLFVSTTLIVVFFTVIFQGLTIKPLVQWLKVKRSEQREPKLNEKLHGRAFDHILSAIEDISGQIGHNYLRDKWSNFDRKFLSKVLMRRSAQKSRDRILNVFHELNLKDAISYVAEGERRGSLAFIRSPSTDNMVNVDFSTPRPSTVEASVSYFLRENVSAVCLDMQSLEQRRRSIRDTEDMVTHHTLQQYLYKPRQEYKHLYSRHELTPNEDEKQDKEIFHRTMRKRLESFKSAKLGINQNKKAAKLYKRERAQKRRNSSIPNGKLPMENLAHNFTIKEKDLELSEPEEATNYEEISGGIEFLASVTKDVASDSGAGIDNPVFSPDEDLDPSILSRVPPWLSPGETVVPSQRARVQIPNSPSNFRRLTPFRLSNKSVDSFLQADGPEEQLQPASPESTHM
- Assay Notes: recovery of intracellular pH (pHi) after acidification, BCECF fluorescence
- Format: cell-based
pIC50: −log10 of the molar value.
Reported Property: pIC50

Please list pIC50 recorded for the compound CC1NC(=Nc2c(Cl)cccc2Cl)NC1C (stereo not shown) [Example 12]
~5.52
